Values were extracted from patent US20240309103A1.

The binders listed here are annotated with their kon.
target: T1, hNPR1-mFc:hBNP complex (human, UniProt P16860 103-134); test: SPR, mAb captured, 25C
T1 construct: also called human NPR1 complexed to BNP
Give a bare numeral; the unit M⁻¹ s⁻¹ is implied.

Exercise: So what does the record say about kon for mAb25497 (antibody, human IgG4, V domains shown) VH: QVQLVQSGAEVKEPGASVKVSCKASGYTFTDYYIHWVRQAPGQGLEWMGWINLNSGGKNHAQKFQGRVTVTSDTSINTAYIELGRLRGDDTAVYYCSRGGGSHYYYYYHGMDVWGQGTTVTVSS VL: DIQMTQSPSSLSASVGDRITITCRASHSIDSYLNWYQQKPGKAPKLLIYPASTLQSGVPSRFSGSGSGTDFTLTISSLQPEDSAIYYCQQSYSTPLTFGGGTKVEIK ?
Key: 153000

Exercise: Also check mAb22805 (antibody, human IgG4, V domains shown) VH: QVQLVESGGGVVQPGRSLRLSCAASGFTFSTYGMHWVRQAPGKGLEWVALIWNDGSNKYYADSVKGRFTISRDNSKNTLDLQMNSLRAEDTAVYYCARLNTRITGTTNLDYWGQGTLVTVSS VL: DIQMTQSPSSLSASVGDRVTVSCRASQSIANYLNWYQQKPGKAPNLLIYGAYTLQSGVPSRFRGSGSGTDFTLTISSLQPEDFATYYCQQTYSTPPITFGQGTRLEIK
Key: 41400

Exercise: Let us now turn to mAb25502 (antibody, human IgG4, V domains shown) VH: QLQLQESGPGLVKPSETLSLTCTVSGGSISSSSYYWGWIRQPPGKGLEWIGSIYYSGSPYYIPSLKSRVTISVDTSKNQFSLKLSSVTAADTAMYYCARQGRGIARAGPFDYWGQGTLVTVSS VL: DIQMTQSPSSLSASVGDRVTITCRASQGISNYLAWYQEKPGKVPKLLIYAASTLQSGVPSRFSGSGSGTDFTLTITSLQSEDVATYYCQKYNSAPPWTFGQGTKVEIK
Key: 69400
